This collection of values is drawn from paper PMC9482650.

So I've got a bunch of binders here, and I need their pKd values.
- SYSTEM TESTED: HTRA1, Q92743
- Sequence (Q92743 360-477): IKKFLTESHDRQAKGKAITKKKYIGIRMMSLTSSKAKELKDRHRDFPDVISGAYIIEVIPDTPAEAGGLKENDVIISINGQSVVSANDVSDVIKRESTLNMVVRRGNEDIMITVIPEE
- ASSAY INFO: holdup assay
- Design: key: below the threshold = too weak to quantify, mostly under pKd 3.1 to 4
- DETAILS: plain residues with an end cap or a label only (N-terminal biotin on a linker: ado-ado)
Answers are plain numbers.

[[record]]
binder = "LLQEEWETVM [PTH1R, Q03431]"
experimental_value = 4.68

[[record]]
binder = "PEKVSNTTVV [IGSF5, Q9NSI5]"
experimental_value = 4.49

[[record]]
binder = "NSTHNLKDYV [CLDN20, P56880]"
experimental_value = 3.64

[[record]]
binder = "GDSSRKEYFI [GYPC, P04921]"
experimental_value = 4.74


We next turn to a different binder, shown below.
Per the records, this binder ( FVFESRKEIL [TBPL1, P62380] ) has pKd equal to 3.89
